- System: NCI-H2228
- Experiment: relative viability (nuclei count vs DMSO), 5 days (fraction); higher = more cells survive
- Test Conditions: first compound 0.04 µM
Give relative viability for every item shown.
Enter the number alone.

Please fill in: relative viability reported for C[C@@H]1CN(CC(=O)Nc2ccc3c(c2)Cc2cccc(-c4cc(=O)cc(N5CCOCC5)o4)c2S3)C[C@H](C)O1 + Cc1cc(Nc2cc(N3CCN(C)CC3)nc(Sc3ccc(NC(=O)C4CC4)cc3)n2)n[nH]1 [Tozasertib] (partner 0.1 µM) = 0.235

Please fill in: relative viability reported for COc1cc(N2CCC(C(N)=O)CC2)ccc1Nc1nc(N)c(Cl)c(Nc2ccccc2S(=O)(=O)C(C)C)n1 [HG-5-88-01] + CC(C)C[C@H](NC(=O)[C@H](Cc1ccccc1)NC(=O)c1cnccn1)B(O)O [Bortezomib] (partner 0.002 µM) = 0.363

* * *

- System: 201T
- Experiment: relative viability (nuclei count vs DMSO), 5 days (fraction); higher = more cells survive
- Test Conditions: first compound 4 µM
Consider the cut-off 0.8. If the recorded relative viability is strictly smaller, the label is satisfied; if not, the label is not satisfied.

Challenge: Bench note: check whether C[C@@H]1CN(CC(=O)Nc2ccc3c(c2)Cc2cccc(-c4cc(=O)cc(N5CCOCC5)o4)c2S3)C[C@H](C)O1 + COc1cc2c(Oc3ccc(NC(=O)C4(C(=O)Nc5ccc(F)cc5)CC4)cc3F)ccnc2cc1OCCCN1CCOCC1 [Foretinib] (partner 0.25 µM) shows relative viability below 0.8
Response given: not satisfied

Challenge: Bench note: check whether C[C@@H]1CN(CC(=O)Nc2ccc3c(c2)Cc2cccc(-c4cc(=O)cc(N5CCOCC5)o4)c2S3)C[C@H](C)O1 + NC(=O)Nc1cc(-c2cccc(F)c2)sc1C(=O)N[C@H]1CCCNC1 [AZD7762] (partner 0.2 µM) shows relative viability below 0.8
Response given: satisfied

Challenge: Bench note: check whether COc1cc(N2CCC(C(N)=O)CC2)ccc1Nc1nc(N)c(Cl)c(Nc2ccccc2S(=O)(=O)C(C)C)n1 [HG-5-88-01] + Nc1ncn([C@H]2C[C@H](O)[C@@H](CO)O2)c(=O)n1 [Decitabine] (partner 2 µM) shows relative viability below 0.8
Response given: not satisfied

Challenge: Bench note: check whether COc1cc(N2CCC(C(N)=O)CC2)ccc1Nc1nc(N)c(Cl)c(Nc2ccccc2S(=O)(=O)C(C)C)n1 [HG-5-88-01] + CCNC(=O)c1noc(-c2cc(C(C)C)c(O)cc2O)c1-c1ccc(CN2CCOCC2)cc1 [Luminespib] (partner 0.01 µM) shows relative viability below 0.8
Response given: not satisfied

Challenge: Bench note: check whether C[C@@H]1CN(CC(=O)Nc2ccc3c(c2)Cc2cccc(-c4cc(=O)cc(N5CCOCC5)o4)c2S3)C[C@H](C)O1 + C[C@]1(O)C[C@@H](c2nc(-c3ccc4ccc(-c5ccccc5)nc4c3)c3c(N)nccn32)C1 [Linsitinib] (partner 1 µM) shows relative viability below 0.8
Response given: not satisfied

Challenge: Bench note: check whether COc1cc(N2CCC(C(N)=O)CC2)ccc1Nc1nc(N)c(Cl)c(Nc2ccccc2S(=O)(=O)C(C)C)n1 [HG-5-88-01] + CC(=O)c1c(C)c2cnc(Nc3ccc(N4CCNCC4)cn3)nc2n(C2CCCC2)c1=O [Palbociclib] (partner 0.5 µM) shows relative viability below 0.8
Response given: satisfied

Challenge: Bench note: check whether COc1cc(N2CCC(C(N)=O)CC2)ccc1Nc1nc(N)c(Cl)c(Nc2ccccc2S(=O)(=O)C(C)C)n1 [HG-5-88-01] + Cc1nc(Nc2ncc(C(=O)Nc3c(C)cccc3Cl)s2)cc(N2CCN(CCO)CC2)n1 [Dasatinib] (partner 0.075 µM) shows relative viability below 0.8
Response given: satisfied

* * *

- Test system: LC-2-ad
- Experiment: relative viability (nuclei count vs DMSO), 5 days (fraction); higher = more cells survive
- Test Conditions: first compound 0.4 µM
Quantity Kind: relative viability
Enter the number alone.

Please fill in: relative viability reported for C[C@@H]1CN(CC(=O)Nc2ccc3c(c2)Cc2cccc(-c4cc(=O)cc(N5CCOCC5)o4)c2S3)C[C@H](C)O1 + N=C(N)NC(=N)NCCc1ccccc1 [Phenformin] (partner 250 µM) = 0.587

Please fill in: relative viability reported for COc1cc(N2CCC(C(N)=O)CC2)ccc1Nc1nc(N)c(Cl)c(Nc2ccccc2S(=O)(=O)C(C)C)n1 [HG-5-88-01] + COc1cc2c(Oc3ccc(NC(=O)C4(C(=O)Nc5ccc(F)cc5)CC4)cc3F)ccnc2cc1OCCCN1CCOCC1 [Foretinib] (partner 0.25 µM) = 0.956

Please fill in: relative viability reported for C[C@@H]1CN(CC(=O)Nc2ccc3c(c2)Cc2cccc(-c4cc(=O)cc(N5CCOCC5)o4)c2S3)C[C@H](C)O1 + CC(C)C[C@H](NC(=O)[C@H](Cc1ccccc1)NC(=O)c1cnccn1)B(O)O [Bortezomib] (partner 0.002 µM) = 0.936

Please fill in: relative viability reported for COc1cc(N2CCC(C(N)=O)CC2)ccc1Nc1nc(N)c(Cl)c(Nc2ccccc2S(=O)(=O)C(C)C)n1 [HG-5-88-01] + Cc1nc(Nc2ncc(C(=O)Nc3c(C)cccc3Cl)s2)cc(N2CCN(CCO)CC2)n1 [Dasatinib] (partner 0.075 µM) = 0.261

Please fill in: relative viability reported for COc1cc(N2CCC(C(N)=O)CC2)ccc1Nc1nc(N)c(Cl)c(Nc2ccccc2S(=O)(=O)C(C)C)n1 [HG-5-88-01] + CC(=O)Nc1cccc(-n2c(=O)n(C3CC3)c(=O)c3c(Nc4ccc(I)cc4F)n(C)c(=O)c(C)c32)c1 [Trametinib] (partner 0.02 µM) = 0.865

Please fill in: relative viability reported for C[C@@H]1CN(CC(=O)Nc2ccc3c(c2)Cc2cccc(-c4cc(=O)cc(N5CCOCC5)o4)c2S3)C[C@H](C)O1 + Nc1ncn([C@H]2C[C@H](O)[C@@H](CO)O2)c(=O)n1 [Decitabine] (partner 2 µM) = 0.792

Please fill in: relative viability reported for COc1cc(N2CCC(C(N)=O)CC2)ccc1Nc1nc(N)c(Cl)c(Nc2ccccc2S(=O)(=O)C(C)C)n1 [HG-5-88-01] + CC(=O)c1c(C)c2cnc(Nc3ccc(N4CCNCC4)cn3)nc2n(C2CCCC2)c1=O [Palbociclib] (partner 0.5 µM) = 0.449

Please fill in: relative viability reported for C[C@@H]1CN(CC(=O)Nc2ccc3c(c2)Cc2cccc(-c4cc(=O)cc(N5CCOCC5)o4)c2S3)C[C@H](C)O1 + Cc1cc(Nc2cc(N3CCN(C)CC3)nc(Sc3ccc(NC(=O)C4CC4)cc3)n2)n[nH]1 [Tozasertib] (partner 0.1 µM) = 0.467

Please fill in: relative viability reported for Clc1ccc(Nc2nnc(Cc3ccncc3)c3ccccc23)cc1 [Vatalanib] + CC(=O)Nc1cccc(-n2c(=O)n(C3CC3)c(=O)c3c(Nc4ccc(I)cc4F)n(C)c(=O)c(C)c32)c1 [Trametinib] (partner 0.02 µM) = 0.965

Please fill in: relative viability reported for COc1cc(N2CCC(C(N)=O)CC2)ccc1Nc1nc(N)c(Cl)c(Nc2ccccc2S(=O)(=O)C(C)C)n1 [HG-5-88-01] + Nc1nc2[nH]cc(CCc3ccc(C(=O)N[C@@H](CCC(=O)O)C(=O)O)cc3)c2c(=O)[nH]1 [Pemetrexed] (partner 0.2 µM) = 0.259

Please fill in: relative viability reported for C[C@@H]1CN(CC(=O)Nc2ccc3c(c2)Cc2cccc(-c4cc(=O)cc(N5CCOCC5)o4)c2S3)C[C@H](C)O1 + O=C(CCCCCCC(=O)Nc1ccccc1)NO [Vorinostat] (partner 1 µM) = 0.712

Please fill in: relative viability reported for C[C@@H]1CN(CC(=O)Nc2ccc3c(c2)Cc2cccc(-c4cc(=O)cc(N5CCOCC5)o4)c2S3)C[C@H](C)O1 + CS(=O)(=O)CCNCc1ccc(-c2ccc3ncnc(Nc4ccc(OCc5cccc(F)c5)c(Cl)c4)c3c2)o1 [Lapatinib] (partner 2 µM) = 0.672

Please fill in: relative viability reported for COc1cc(N2CCC(C(N)=O)CC2)ccc1Nc1nc(N)c(Cl)c(Nc2ccccc2S(=O)(=O)C(C)C)n1 [HG-5-88-01] + C[C@@H](Oc1cc(-c2cnn(C3CCNCC3)c2)cnc1N)c1c(Cl)ccc(F)c1Cl [Crizotinib] (partner 1 µM) = 0.5

Please fill in: relative viability reported for COc1cc(N2CCC(C(N)=O)CC2)ccc1Nc1nc(N)c(Cl)c(Nc2ccccc2S(=O)(=O)C(C)C)n1 [HG-5-88-01] + COc1cccc2cc(-c3nc([C@H]4CC[C@H](C(=O)O)CC4)n4ncnc(N)c34)[nH]c12 [OSI-027] (partner 0.5 µM) = 0.826

Please fill in: relative viability reported for C[C@@H]1CN(CC(=O)Nc2ccc3c(c2)Cc2cccc(-c4cc(=O)cc(N5CCOCC5)o4)c2S3)C[C@H](C)O1 + Nc1nc2[nH]cc(CCc3ccc(C(=O)N[C@@H](CCC(=O)O)C(=O)O)cc3)c2c(=O)[nH]1 [Pemetrexed] (partner 0.2 µM) = 0.291

Please fill in: relative viability reported for C[C@@H]1CN(CC(=O)Nc2ccc3c(c2)Cc2cccc(-c4cc(=O)cc(N5CCOCC5)o4)c2S3)C[C@H](C)O1 + C[C@]1(O)C[C@@H](c2nc(-c3ccc4ccc(-c5ccccc5)nc4c3)c3c(N)nccn32)C1 [Linsitinib] (partner 1 µM) = 0.839
